Source listed as the supplement of paper PMC9112550.

System: Escherichia coli TOP10
assay-info: shrunken log2 fold change of peptide-encoding DNA abundance (4.5 h post-induction vs induction); higher = less antimicrobial activity (less host growth inhibition)
test-context: time post-induction: 4.5 h; library: site-saturation at positions 5, 18, 19, 20
In this section, each of the sequences is paired with its reported shrunken log2 fold change.
Give the figure by itself; no unit, no explanation.

sequence-string	experimental-target	quantity-name	measurement
RRIRERPPRLPRPRPRPSCQPRP	Escherichia coli TOP10	shrunken log2 fold change	-0.47
RRIRNRPPRLPRPRPRPGECPRP	Escherichia coli TOP10	shrunken log2 fold change	0.266
RRIRHRPPRLPRPRPRPPRLPRP	Escherichia coli TOP10	shrunken log2 fold change	0.0241
RRIRKRPPRLPRPRPRPGKRPRP	Escherichia coli TOP10	shrunken log2 fold change	0.285
RRIRIRPPRLPRPRPRPCMDPRP	Escherichia coli TOP10	shrunken log2 fold change	-0.695

Exercise: // query shrunken log2 fold change value for entry RRIRARPPRLPRPRPRPSMTPRP
Solution: 0.2

Exercise: Would you mind telling me what shrunken log2 fold change value was observed for RRIRKRPPRLPRPRPRPNFRPRP ?
Solution: 0.155

Exercise: Fill blank: measured shrunken log2 fold change of the sequence RRIRERPPRLPRPRPRPIWGPRP is ____.
Solution: -0.0579

Exercise: Consider the sequence RRIRTRPPRLPRPRPRPGAKPRP and give its measured shrunken log2 fold change.
Solution: 0.524

Exercise: So what's the measured shrunken log2 fold change for this one? RRIRFRPPRLPRPRPRPPNVPRP
Solution: 0.0696

Exercise: Please report the recorded shrunken log2 fold change for RRIRARPPRLPRPRPRPCVCPRP .
Solution: 0.301

Exercise: // query shrunken log2 fold change value for entry RRIRQRPPRLPRPRPRPPNHPRP
Solution: -0.157

Exercise: What measured shrunken log2 fold change goes with RRIRWRPPRLPRPRPRPFTVPRP ?
Solution: -0.512

Exercise: Would you mind telling me what shrunken log2 fold change value was observed for RRIRWRPPRLPRPRPRPWKCPRP ?
Solution: -0.01

Exercise: May I ask what shrunken log2 fold change has been recorded for RRIRRRPPRLPRPRPRPPVDPRP ?
Solution: 0.241

* * *

Tested on: Escherichia coli TOP10
assay-info: shrunken log2 fold change of peptide-encoding DNA abundance (4.5 h post-induction vs induction); higher = less antimicrobial activity (less host growth inhibition)
test-context: time post-induction: 4.5 h; library: site-saturation at positions 5, 18, 19, 20
quantity-name: shrunken log2 fold change
Lab note: write the figure by itself, no unit.

sequence-string	shrunken log2 fold change
RRIRHRPPRLPRPRPRPWKEPRP	-0.0223
RRIRDRPPRLPRPRPRPTCVPRP	0.346
RRIRHRPPRLPRPRPRPNRVPRP	-0.672
RRIRWRPPRLPRPRPRPNRGPRP	0.172
RRIRVRPPRLPRPRPRPIAQPRP	-0.061
RRIRHRPPRLPRPRPRPANRPRP	-0.129

Exercise: Please report the recorded shrunken log2 fold change for RRIRMRPPRLPRPRPRPQWIPRP .
Solution: -0.00285

* * *

A collection of sequences and their measured shrunken log2 fold change
Tested on: Escherichia coli TOP10;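 note: peptides expressed intracellularly from a pBAD plasmid library in pooled LB shake-flask culture, induced with 0.3% L-arabinose, DNA abundance read by NGS, three biological replicates, DESeq2 with apeglm shrinkage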
assay-info: shrunken log2 fold change of peptide-encoding DNA abundance (4.5 h post-induction vs induction); higher = less antimicrobial activity (less host growth inhibition)
test-context: time post-induction: 4.5 h; library: site-saturation at positions 5, 18, 19, 20
Please reply with the number alone, leaving off any unit.

sequence-string	experimental-target	quantity-name	measurement
RRIRGRPPRLPRPRPRPVMVPRP	Escherichia coli TOP10	shrunken log2 fold change	0.128
RRIRYRPPRLPRPRPRPWCVPRP	Escherichia coli TOP10	shrunken log2 fold change	-0.55
RRIRNRPPRLPRPRPRPYYQPRP	Escherichia coli TOP10	shrunken log2 fold change	-0.697
RRIRERPPRLPRPRPRPPGLPRP	Escherichia coli TOP10	shrunken log2 fold change	0.433

Exercise: Endpoint output: shrunken log2 fold change of RRIRERPPRLPRPRPRPCHEPRP . Value?
Solution: -0.0789

Exercise: Entry RRIRCRPPRLPRPRPRPRNEPRP : reported shrunken log2 fold change = ?
Solution: -0.0561

Exercise: Record request: shrunken log2 fold change value, item RRIRQRPPRLPRPRPRPRSHPRP
Solution: 0.183

Exercise: May I ask what shrunken log2 fold change has been recorded for RRIRYRPPRLPRPRPRPRISPRP ?
Solution: -0.218
